Property: fraction unbound; scope: individual compounds
experiment: Protein binding in rat plasma; assay type: ADME, cell-free; settings: read-out: PPB (converted)
Starred links: 1 amine or outer side, 2 acyl side, 3 side chain; linkers in the order of their positions; H or OH if unused. Non-standard residues stand in square brackets, D forms with d. Residues, ends and D or L forms follow the SMILES beside them. *: point of attachment. dAlaψ(CH2NBu)Nle = CCCC[C@@H](C(=O)[*:2])N(CCCC)C[C@@H](C)N[*:1]; X3 = C[C@H](CO[C@H](CC1CC2(CCC2)C1)[C@@H](C)C(=O)[*:2])N[*:1]; X1 = CCCCCC[C@@H](OC[C@@H](C)N[*:1])[C@@H](C)C(=O)[*:2]; Cyclobutyl(trans-3-NH2) = N[C@H]1C[C@H](*)C1; X4 = CCCCCCN(CCN[*:1])[C@@H](C)C(=O)[*:2]; Gly(cHept) = N[C@H](C(=O)O)C1CCCCCC1; NMeL = CN[C@@H](CC(C)C)C(=O)O; Chg = N[C@H](C(=O)O)C1CCCCC1; NMeNva = CCC[C@H](NC)C(=O)O; X2 = NC[C@H]1C[C@H](*)C1; Dap = NC[C@H](N)C(=O)O
Enter a number only.

CCCC[C@H]1C(=O)N(C)[C@@H](CCC)C(=O)N[C@@H](C2CCCCC2)C(=O)N[C@@H](CN)C(=O)N[C@@H](CO[C@H]2C[C@H](N)C2)C(=O)N[C@H](C)CN1CCCC (cyclo([Chg][Dap]S(Cyclobutyl(trans-3-NH2))[dAlaψ(CH2NBu)Nle][NMeNva])) ... 0.047
CCC[C@H]1C(=O)N[C@@H](C2CCCCCC2)C(=O)N[C@@H](CN)C(=O)N[C@@H](CO[C@H]2C[C@H](N)C2)C(=O)N[C@H](C)CO[C@H](CC2CC3(CCC3)C2)[C@@H](C)C(=O)N1C (cyclo([Dap]S(Cyclobutyl(trans-3-NH2))[X3][NMeNva][Gly(cHept)])) ... 0.022
CCCCCCN1CCNC(=O)[C@H](CO[C@H]2C[C@H](N)C2)NC(=O)[C@H](CN)NC(=O)[C@H](C2CCCCC2)NC(=O)[C@H](CC(C)C)N(C)C(=O)[C@@H]1C (cyclo([Chg][Dap]S(Cyclobutyl(trans-3-NH2))[X4][NMeL])) ... 0.043

Here's the next entry for you.
I'd like to know its fraction unbound. The compound in question is CCCCCC[C@H]1OC[C@@H](C)NC(=O)[C@H](CO[C@H]2C[C@H](CN)C2)NC(=O)[C@H](CN)NC(=O)[C@H](C2CCCCCC2)NC(=O)[C@H](CCC)N(C)C(=O)[C@@H]1C (cyclo([Dap]S(X2)[X1][NMeNva][Gly(cHept)]))
0.033
